Source listed as patent US7157479B2.

molecular target: hPPAR gamma (Homo sapiens); construct: expressed in transfected cells; host or cells: CV-1 cells; assay: Transient transfection (transactivation) assay in CV-1 cells, hPPAR gamma; format: cell-based; conditions: GAL4 chimera, SPAP reporter, read-out: EC50 nM HPPARy
Sequence (P37231 238-503 limits assumed): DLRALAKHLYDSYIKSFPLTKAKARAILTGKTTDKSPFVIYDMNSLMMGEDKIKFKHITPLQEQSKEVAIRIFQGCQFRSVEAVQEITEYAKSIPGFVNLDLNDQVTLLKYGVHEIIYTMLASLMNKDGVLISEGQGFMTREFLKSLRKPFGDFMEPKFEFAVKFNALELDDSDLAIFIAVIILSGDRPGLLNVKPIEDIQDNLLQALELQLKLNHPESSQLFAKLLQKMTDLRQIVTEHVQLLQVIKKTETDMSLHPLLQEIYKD
EXPERIMENTAL READOUT: EC50 (nM)
Your answer should be a plain number; it is taken to be in nM.

CCc1ccc(-c2sc(C(=O)NCc3ccc(OC(C)(C)C(=O)O)cc3)nc2C)cc1 | 700

# evaluate next
Recorded EC50 (molecule `Cc1nc(C(=O)NCc2ccc(OC(C)(C)C(=O)O)cc2)sc1-c1ccc(F)cc1` ): 5880
